For each entry below, report its IC50 value.
biological target: PI3Kα (wild-type), P110/P85α (Homo sapiens, UniProt P42336); assay: PI3 Kinase TR-FRET assay, PI3Kα (wild-type)
Sequence (P42336 whole entry): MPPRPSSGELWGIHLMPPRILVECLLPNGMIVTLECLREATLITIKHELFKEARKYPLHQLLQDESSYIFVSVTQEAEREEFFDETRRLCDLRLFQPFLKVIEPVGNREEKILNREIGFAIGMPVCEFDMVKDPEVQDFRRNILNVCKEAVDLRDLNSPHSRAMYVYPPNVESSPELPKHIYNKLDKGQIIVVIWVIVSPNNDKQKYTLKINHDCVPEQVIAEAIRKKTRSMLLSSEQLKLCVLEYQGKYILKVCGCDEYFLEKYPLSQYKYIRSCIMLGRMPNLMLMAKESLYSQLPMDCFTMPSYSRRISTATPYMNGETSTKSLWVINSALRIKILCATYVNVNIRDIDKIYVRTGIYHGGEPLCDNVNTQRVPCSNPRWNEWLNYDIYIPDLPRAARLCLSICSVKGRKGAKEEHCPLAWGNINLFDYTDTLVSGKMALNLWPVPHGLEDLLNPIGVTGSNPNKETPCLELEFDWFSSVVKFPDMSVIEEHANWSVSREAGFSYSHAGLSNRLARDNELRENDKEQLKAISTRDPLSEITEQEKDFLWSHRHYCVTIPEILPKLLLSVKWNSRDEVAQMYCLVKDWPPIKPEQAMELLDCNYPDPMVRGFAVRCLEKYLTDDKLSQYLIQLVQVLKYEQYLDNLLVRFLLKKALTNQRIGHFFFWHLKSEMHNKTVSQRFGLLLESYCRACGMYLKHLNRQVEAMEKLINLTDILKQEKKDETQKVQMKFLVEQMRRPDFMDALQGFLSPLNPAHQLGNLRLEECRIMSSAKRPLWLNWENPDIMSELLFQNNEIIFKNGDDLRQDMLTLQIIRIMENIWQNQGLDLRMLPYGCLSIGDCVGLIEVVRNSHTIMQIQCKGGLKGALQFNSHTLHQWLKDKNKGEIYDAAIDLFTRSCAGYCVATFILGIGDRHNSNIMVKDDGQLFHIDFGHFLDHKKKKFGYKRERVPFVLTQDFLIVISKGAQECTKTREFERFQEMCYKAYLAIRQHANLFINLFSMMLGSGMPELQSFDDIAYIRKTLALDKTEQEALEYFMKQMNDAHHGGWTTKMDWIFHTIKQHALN
Sequence (P27986 whole entry partner): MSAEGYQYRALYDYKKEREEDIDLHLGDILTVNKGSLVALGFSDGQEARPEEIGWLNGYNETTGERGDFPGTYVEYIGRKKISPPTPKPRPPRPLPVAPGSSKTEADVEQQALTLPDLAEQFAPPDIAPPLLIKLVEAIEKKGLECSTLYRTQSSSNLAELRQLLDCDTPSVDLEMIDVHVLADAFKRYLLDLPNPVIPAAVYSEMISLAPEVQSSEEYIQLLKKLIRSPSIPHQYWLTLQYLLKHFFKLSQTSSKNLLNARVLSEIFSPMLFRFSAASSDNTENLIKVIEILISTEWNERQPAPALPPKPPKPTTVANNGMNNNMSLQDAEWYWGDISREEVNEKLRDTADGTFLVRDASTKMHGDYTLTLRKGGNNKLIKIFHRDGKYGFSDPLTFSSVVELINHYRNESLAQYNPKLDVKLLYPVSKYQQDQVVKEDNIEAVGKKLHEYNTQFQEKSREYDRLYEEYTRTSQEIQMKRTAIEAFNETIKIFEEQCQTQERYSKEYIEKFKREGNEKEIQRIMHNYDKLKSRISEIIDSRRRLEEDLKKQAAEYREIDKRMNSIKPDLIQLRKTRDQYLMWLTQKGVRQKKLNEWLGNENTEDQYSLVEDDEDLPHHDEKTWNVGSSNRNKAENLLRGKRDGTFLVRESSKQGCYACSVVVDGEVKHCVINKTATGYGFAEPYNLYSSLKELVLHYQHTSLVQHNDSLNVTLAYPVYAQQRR

[in] # get_value(readout='IC50', item= CN(C)C(=O)c1ccc(NC(=O)Nc2ccc(-c3nc(N4CCOCC4)c4ccc(-c5ccc(C#N)o5)cc4n3)cc2)cc1 )
[out] < 50 nM

[in] # get_value(readout='IC50', item= CN(C)C(=O)c1ccc(NC(=O)Nc2ccc(-c3nc(N4CCOCC4)c4ccc(-c5cccc(S(C)(=O)=O)c5)cc4n3)cc2)cn1 )
[out] 50 to 200 nM

[in] # get_value(readout='IC50', item= CC1CN(c2nc(-c3ccc(NC(=O)Nc4ccc(C(=O)N(C)C)cc4)c(F)c3)nc3cc(-c4cncnc4)ccc23)CC(C)O1 (centres unmarked) )
[out] 201 to 10000 nM

[in] # get_value(readout='IC50', item= CN(C)C(=O)c1ccc(NC(=O)Nc2ccc(-c3nc(N4CCOCC4)c4cc(F)c(-c5cncnc5)cc4n3)cn2)cc1 )
[out] < 50 nM

[in] # get_value(readout='IC50', item= CNC(=O)c1ccc(NC(=O)Nc2ccc(-c3nc(N4CCOCC4)c4ccc(-c5ccco5)cc4n3)cc2)cc1 )
[out] < 50 nM

[in] # get_value(readout='IC50', item= CC1CN(c2nc(-c3ccc(NC(=O)Nc4ccc(C(=O)N(C)C)cc4)cc3)nc3cc(-c4cncnc4)ccc23)CCO1 (centres unmarked) )
[out] < 50 nM

[in] # get_value(readout='IC50', item= CN(C)C(=O)c1ccc(NC(=O)Nc2ccc(-c3nc(N4CCOCC4)c4cc(F)c(-c5cccnc5)cc4n3)cc2)c(F)c1 )
[out] < 50 nM

[in] # get_value(readout='IC50', item= Cc1ccc(-c2ccc3c(N4CCOCC4)nc(-c4ccc(NC(=O)Nc5ccc(N6CCCC6=O)cc5)cc4)nc3c2)o1 )
[out] 201 to 10000 nM

[in] # get_value(readout='IC50', item= CN(C)C(=O)c1ccc(NC(=O)Nc2ccc(-c3nc(N4CCOCC4)c4ncc(-c5cccc(S(C)(=O)=O)c5)cc4n3)cc2F)cc1 )
[out] < 50 nM

[in] # get_value(readout='IC50', item= CN(C)C(=O)c1ccc(NC(=O)Nc2ccc(-c3nc(N4CCOCC4)c4ccc(-c5ccc(CO)o5)cc4n3)cc2)c(F)c1 [Example 228] )
[out] < 50 nM

[in] # get_value(readout='IC50', item= CN(C)C(=O)c1ccc(NC(=O)Nc2ccc(-c3nc(N4CCOCC4)c4ncc(-c5cccnc5F)cc4n3)c(F)c2)cc1 )
[out] < 50 nM

[in] # get_value(readout='IC50', item= CN1CCN(C(=O)c2ccc(NC(=O)Nc3ccc(-c4nc(N5CCOCC5)c5ccc(-c6ccncc6)cc5n4)cc3F)cc2)CC1 )
[out] 50 to 200 nM

[in] # get_value(readout='IC50', item= CC(=O)Nc1cccc(-c2ccc3c(N4CCOCC4)nc(-c4ccc(NC(=O)Nc5ccc(C(=O)N(C)C)cc5)cc4)nc3c2)c1 )
[out] < 50 nM

[in] # get_value(readout='IC50', item= Cc1ccc(-c2ccc3c(N4CCOCC4)nc(-c4ccc(NC(=O)Nc5ccc(C(=O)NCCN(C)C)cc5)cc4)nc3c2)o1 )
[out] 50 to 200 nM

[in] # get_value(readout='IC50', item= CN(C)C(=O)c1ccc(NC(=O)Nc2ccc(-c3nc(N4CCOCC4)c4ncc(-c5cncnc5)cc4n3)cc2)cc1F )
[out] < 50 nM

[in] # get_value(readout='IC50', item= CC1CN(c2nc(-c3ccc(NC(=O)Nc4ccc(C(=O)N(C)C)cc4)cc3F)nc3cc(-c4cncnc4)ccc23)CCO1 (centres unmarked) )
[out] 201 to 10000 nM

[in] # get_value(readout='IC50', item= Cc1ccncc1-c1ccc2c(N3CCOCC3)nc(-c3ccc(NC(=O)Nc4ccc(C(=O)N5CCC(N(C)C)CC5)cc4)cc3)nc2c1 )
[out] < 50 nM

[in] # get_value(readout='IC50', item= CN(C)C(=O)c1ccc(NC(=O)Nc2ccc(-c3nc(N4CCOCC4)c4cc(F)c(-c5cncnc5)cc4n3)c(F)c2)cc1 )
[out] 50 to 200 nM

[in] # get_value(readout='IC50', item= COc1ncc(-c2ccc3c(N4CCOCC4)nc(-c4ccc(NC(=O)Nc5ccc(C(=O)N(C)C)cc5F)cc4)nc3c2)cn1 )
[out] 50 to 200 nM

[in] # get_value(readout='IC50', item= CN(C)C1CCN(C(=O)c2ccc(NC(=O)Nc3ccc(-c4nc(N5CCOCC5)c5ccc(-c6cncnc6)cc5n4)cc3)cc2)C1 (stereo in doubt) )
[out] < 50 nM

[in] # get_value(readout='IC50', item= CN(C)C(=O)c1ccc(NC(=O)Nc2ccc(-c3nc(N4CCOCC4)c4ccc(-c5ccco5)cc4n3)cn2)cc1 )
[out] < 50 nM

[in] # get_value(readout='IC50', item= CN(C)C(=O)c1ccc(NC(=O)Nc2ccc(-c3nc(N4CCOCC4)c4ccc(-c5ccnnc5)cc4n3)cc2)cc1 )
[out] 50 to 200 nM

[in] # get_value(readout='IC50', item= COc1ccc2c(N3CCOCC3)nc(-c3ccc(NC(=O)Nc4ccc(C(=O)N(C)C)cc4)c(F)c3)nc2c1 )
[out] 50 to 200 nM

[in] # get_value(readout='IC50', item= Cc1noc(C)c1-c1cc2nc(-c3ccc(NC(=O)Nc4ccc(C(=O)N(C)C)cc4)cc3)nc(N3CCOCC3)c2cc1F )
[out] 50 to 200 nM

[in] # get_value(readout='IC50', item= CN(C)C(=O)c1ccc(NC(=O)Nc2ccc(-c3nc(N4CCOCC4)c4ncc(-c5cnn(C)c5)cc4n3)cc2F)c(F)c1 )
[out] 201 to 10000 nM

[in] # get_value(readout='IC50', item= CN(C)C(=O)c1ccc(NC(=O)Nc2ccc(-c3nc(N4CCOCC4)c4ccc(-c5cncnc5)cc4n3)cc2F)c(F)c1 )
[out] 201 to 10000 nM
